- Tested on: SARS-CoV-2WK-521
- Test: microbe, parasite or virus in culture
- Type: cell-based
- Experimental Conditions: read-out: EC50
pEC50: −log10 of the molar value.
Observable: pEC50

These recorded examples may help you get a feel for the data.
CC1(C)[C@@H]2[C@@H](C(=O)N[C@@H](C[C@@H]3CCNC3=O)C(=O)c3nc4c(F)cccc4s3)N(C(=O)[C@H](CC(F)(F)F)NC(=O)C(F)(F)F)C[C@@H]21 = > 6.70
CC1(C)[C@@H]2[C@@H](C(=O)N[C@@H](C[C@@H]3CCNC3=O)C(=O)c3nc4c(F)cccc4s3)N(C(=O)[C@H](CCC(F)(F)F)NC(=O)C(F)(F)F)C[C@@H]21 = > 6.70
CC(C)(C)[C@H](NC(=O)C(F)(F)F)C(=O)N1C[C@H]2[C@@H]([C@H]1C(=O)N[C@@H](C[C@@H]1CCNC1=O)C(=O)c1nc3c(F)ccc(F)c3s1)C2(C)C = > 6.70
CC(C)(F)[C@H](NC(=O)C(F)(F)F)C(=O)N1C[C@H]2[C@@H]([C@H]1C(=O)N[C@@H](C[C@@H]1CCNC1=O)C(=O)c1nc3c(F)cccc3s1)C2(C)C = > 6.70

Here is another molecule to look at.
### Prompt pEC50 lookup needed for CC1(C)[C@@H]2[C@@H](C(=S)N[C@@H](C[C@@H]3CCNC3=O)C(=O)c3nc4c(F)cccc4s3)N(C(=O)[C@H](CCC(F)(F)F)NC(=O)C(F)(F)F)C[C@@H]21 [Compound 249s] , thanks.
### Response > 6.52

====

- Test: in vivo
- Experimental Conditions: mouse, po, 2 mg/kg, bioavailability (BA)
Observable: bioavailability (%)
Answers are plain numbers, in %.

### Prompt bioavailability lookup needed for CC(C)(C)[C@H](NC(=O)C(F)(F)F)C(=O)N1C[C@H]2[C@@H]([C@H]1C(=O)N[C@@H](C[C@@H]1CCNC1=O)C(=O)c1nc3cc(F)ccc3s1)C2(C)C [Compound 272] , thanks.
### Response 99.3

====

- Test system: SARS-CoV-2WK-521
- Test: microbe, parasite or virus in culture
- Type: cell-based
- Experimental Conditions: Severe acute respiratory syndrome coronavirus 2, Vero C1008, 72 h
Observable: EC50

### Prompt Quick check: EC50 on SARS-CoV-2WK-521, item COc1cccc2[nH]c(C(=O)N[C@@H](CC(C)C)C(=O)N[C@@H](C[C@@H]3CCNC3=O)C(=O)c3nc4ccccc4s3)cc12 [Compound 2420, reference compound] ?
### Response 2700 to 3200 nM

====

- Test: in vivo
- Experimental Conditions: mouse, po, 2 mg/kg, bioavailability (BA), same experiment conducted again, mice, 2 mg/kg P.O. vs I.V., calculated from AUC of FIG. 2
Observable: bioavailability
Answers without a unit are incomplete; give the number and then its unit.

### Prompt bioavailability lookup needed for CC(C)(C)[C@H](NC(=O)C(F)(F)F)C(=O)N1C[C@H]2[C@@H]([C@H]1C(=O)N[C@@H](C[C@@H]1CCNC1=O)C(=O)c1nc3c(F)cccc3s1)C2(C)C [Compound 245] , thanks.
### Response 47.7%

====

- Tested on: SARS-CoV-2WK-521
- Test: microbe, parasite or virus in culture
- Format: cell-based
- Experimental Conditions: Severe acute respiratory syndrome coronavirus 2, Vero C1008, 72 h; Vero E6 cells, MOI 0.05, 3 days; read-out: EC50
I'd appreciate it if you could supply EC50 values for the items below.
Answers are plain numbers, in nM.

These recorded examples may help you get a feel for the data.
CC(C)(C)[C@H](NC(=O)C(F)(F)F)C(=O)N1C[C@H]2[C@@H]([C@H]1C(=O)N[C@H](C#N)C[C@@H]1CCNC1=O)C2(C)C [PF-7321332, reference compound] = 1900
CC1(C)[C@@H]2[C@@H](C(=O)N[C@@H](C[C@@H]3CCNC3=O)C(=O)c3nc4c(F)cccc4s3)N(C(=O)c3cc4c(F)ccc(F)c4[nH]3)C[C@@H]21 = 750
CC(C)(C)[C@H](NC(=O)C(F)(F)F)C(=O)N1C[C@H]2[C@@H]([C@H]1C(=S)N[C@@H](C[C@@H]1CCNC1=O)C(=O)c1nc3c(F)cccc3s1)C2(C)C [Compound 245s] = 310

Here is another compound to look at.
### Prompt EC50 lookup needed for COc1ccc(F)c2[nH]c(C(=O)N3C[C@H]4[C@@H]([C@H]3C(=O)N[C@@H](C[C@@H]3CCNC3=O)C(=O)c3nc5c(F)cccc5s3)C4(C)C)cc12 , thanks.
### Response 600

====

- System: SARS-CoV-2WK-521
- Test: microbe, parasite or virus in culture
- Format: cell-based
- Experimental Conditions: Vero E6 cells, MOI 0.05, 3 days
I'd appreciate it if you could supply EC99 values for the items below.
Answers without a unit are incomplete; give the number and then its unit.

These recorded examples may help you get a feel for the data.
CC(C)(C)[C@H](NC(=O)C(F)(F)F)C(=O)N1C[C@H]2[C@@H](C1C(=S)N[C@@H](C[C@@H]1CCNC1=O)C(=O)c1nc3c(F)cccc3s1)C2(C)C (stereo partly shown) [Compound 245s] = 0.98 µM
CC1(C)[C@@H]2[C@@H](C(=O)N[C@@H](C[C@@H]3CCNC3=O)C(=O)c3nc4c(F)cccc4s3)N(C(=O)c3cc4c(F)ccc(F)c4[nH]3)C[C@@H]21 = 9.4 µM
CC(C)(C)[C@H](NC(=O)C(F)(F)F)C(=O)N1C[C@H]2[C@@H]([C@H]1C(=O)N[C@H](C#N)C[C@@H]1CCNC1=O)C2(C)C [PF-7321332, reference compound] = 9.68 µM

Here is another compound to look at.
### Prompt EC99 lookup needed for COc1ccc(F)c2[nH]c(C(=O)N3C[C@H]4[C@@H]([C@H]3C(=O)N[C@@H](C[C@@H]3CCNC3=O)C(=O)c3nc5c(F)cccc5s3)C4(C)C)cc12 , thanks.
### Response 0.99 µM

====

- Test: in vivo
- Experimental Conditions: mouse, iv, 2 mg/kg
Observable: half-life

Hello, I would appreciate it if you could give half-life for each entry below.
1. COc1cccc2[nH]c(C(=O)N[C@@H](CC(C)C)C(=O)N[C@@H](C[C@@H]3CCNC3=O)C(=O)c3nc4ccccc4s3)cc12 [Compound 2420, reference compound]
2. CC(C)(C)[C@H](NC(=O)C(F)(F)F)C(=O)N1C[C@H]2[C@@H]([C@H]1C(=O)N[C@@H](C[C@@H]1CCNC1=O)C(=O)c1nc3c(F)cccc3s1)C2(C)C

### Response
1. ~10 min
2. ≥ 45 min

====

- Test: Cytotoxicity test, MTT assay
- Format: cell-based
- Experimental Conditions: African green monkey, Vero E6 cells
Observable: CC50 at 3 days

These recorded examples may help you get a feel for the data.
CC(C)(C)[C@H](NC(=O)C(F)(F)F)C(=O)N1C[C@H]2[C@@H]([C@H]1C(=O)N[C@@H](C[C@@H]1CCNC1=O)C(=O)c1nc3cc(F)ccc3s1)C2(C)C [Compound 272] = > 80 µM
CC(C)(C)[C@H](NC(=O)C(F)(F)F)C(=O)N1C[C@H]2[C@@H]([C@H]1C(=O)N[C@@H](C[C@@H]1CCNC1=O)C(=O)c1nc3c(F)cccc3s1)C2(C)C [Compound 245] = > 100 µM
CC(C)(C)[C@H](NC(=O)C(F)(F)F)C(=O)N1C[C@H]2[C@@H]([C@H]1C(=O)N[C@H](C#N)C[C@@H]1CCNC1=O)C2(C)C [PF-7321332, reference compound] = > 100 µM

Hello, I would appreciate it if you could give CC50 at 3 days for each entry below.
1. CC1(C)[C@@H]2[C@@H](C(=O)N[C@@H](C[C@@H]3CCNC3=O)C(=O)c3nc4c(F)cccc4s3)N(C(=O)c3cc4c(F)ccc(F)c4[nH]3)C[C@@H]21 [Compound 243]
2. CC(C)(C)[C@H](NC(=O)C(F)(F)F)C(=O)N1C[C@H]2[C@@H]([C@H]1C(=S)N[C@@H](C[C@@H]1CCNC1=O)C(=O)c1nc3c(F)cccc3s1)C2(C)C [Compound 245s]

### Response
> 100 µM
> 100 µM

Hello, I would appreciate it if you could give CC50 at 3 days for each entry below.
1. CC(C)(C)[C@H](NC(=O)C(F)(F)F)C(=O)N1C[C@H]2[C@@H]([C@H]1C(=O)N[C@@H](C[C@@H]1CCNC1=O)C(=O)c1nc3ccc(F)cc3s1)C2(C)C [Compound 273]
2. COc1ccc(F)c2[nH]c(C(=O)N3C[C@H]4[C@@H]([C@H]3C(=O)N[C@@H](C[C@@H]3CCNC3=O)C(=O)c3nc5c(F)cccc5s3)C4(C)C)cc12 [Compound 244]

### Response
> 80 µM
> 100 µM
